Field: pIC50. Provide a value for each of the compounds that follow.
biological target: Human immunodeficiency virus type 1 reverse transcriptase (Human immunodeficiency virus 1, UniProt Q72547); assay: Inhibition of recombinant wild-type HIV1 3B reverse transcriptase assessed as reduction in biotin-dUTP incorporation using poly(rA)/oligo(dT)16 as template primer incubated for 1 hr followed by the addition of (DIG)-dUTP and biotin-labeled dNTPs by ELISA
Answers are plain numbers, as −log10 of the molar value.

compound="COc1cccc(NC2=Nc3ccc(Cl)cc3C(C#CC3CC3)(C(F)(F)F)N2)c1 (stereo not given)" numeric_readout=8.96
compound="FC(F)(F)c1cccc(NC2=Nc3ccc(Cl)cc3C(C#CC3CC3)(C(F)(F)F)N2)c1 (stereo not given)" numeric_readout=8.35
compound="FC(F)(F)C1(C#CC2CC2)NC(Nc2ccccc2Br)=Nc2ccc(Cl)cc21 (stereo not given)" numeric_readout=8.47
compound="FC(F)(F)C1(C#CC2CC2)NC(Nc2ccc(Cl)c(Cl)c2)=Nc2ccc(Cl)cc21 (stereo not given)" numeric_readout=8.43

Moving on to the next compound.
INPUT: Dear colleague, I am looking for the recorded pIC50 of the following compound: N#Cc1ccc(NC2=Nc3ccc(Cl)cc3C(C#CC3CC3)(C(F)(F)F)N2)cc1 (stereo not given)
OUTPUT: 8.00
